test: Pharmacokinetics in male beagle dogs after a single oral dose (plasma Compound 1); conditions: dog, 10 mg/kg, Tmax, dog 301, single oral 10 mg/kg dose, plasma Compound 1
property_measured: Tmax (min)
Answer in min, number only, no unit symbol.

Query string: Name the reported Tmax value associated with the molecule COc1ccc2c(c1OCc1ccccc1)C[C@@H](C(=O)[O-])N(C(=O)C(c1ccccc1)c1ccccc1)C2.[Na+]
Result string: 45

====

test: in vivo; conditions: male, beagle, dog, po, 10 mg/kg, mean Cmax
property_measured: Cmax (ng/mL)
Answer in ng/mL, number only, no unit symbol.

Query string: Name the reported Cmax value associated with the compound COc1ccc2c(c1OCc1ccccc1)C[C@@H](C(=O)O)N(C(=O)C(c1ccccc1)c1ccccc1)C2
Result string: 294
